molecular target: COVID S1 RBD Fc fusion (Antigen 1) (SARS-CoV-2), P0DTC2; test: phage ELISA; details: remark: other sources report otherwise
REPORTED_METRIC: ELISA fold over background (fold)
Value expressed in fold; do not type the unit.

The following binders have reported results that may help.
| BINDER | MEASURED_VALUE |
| --- | --- |
| SARS-CoV-2 variant 1-30 (antibody) chain 1: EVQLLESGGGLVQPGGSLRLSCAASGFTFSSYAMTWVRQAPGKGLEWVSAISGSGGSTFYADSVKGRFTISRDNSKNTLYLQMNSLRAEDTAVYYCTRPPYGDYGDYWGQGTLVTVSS chain 2: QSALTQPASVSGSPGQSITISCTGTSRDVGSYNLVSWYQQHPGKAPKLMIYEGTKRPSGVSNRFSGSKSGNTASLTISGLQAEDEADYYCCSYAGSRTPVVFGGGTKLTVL | 1.7 |
| SARS-CoV-2 variant 1-28 (antibody) chain 1: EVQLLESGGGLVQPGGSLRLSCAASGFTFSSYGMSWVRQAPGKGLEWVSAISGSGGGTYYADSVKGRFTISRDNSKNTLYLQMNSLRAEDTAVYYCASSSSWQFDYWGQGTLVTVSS chain 2: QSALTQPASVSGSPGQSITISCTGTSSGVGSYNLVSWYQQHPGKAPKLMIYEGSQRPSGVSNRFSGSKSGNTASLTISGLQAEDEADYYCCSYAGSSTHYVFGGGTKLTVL | 1.1 |

As a next step, examine the binder that follows.
Lookup: Tell me the measured ELISA fold over background of SARS-CoV-2 variant 1-4 (antibody) chain 1: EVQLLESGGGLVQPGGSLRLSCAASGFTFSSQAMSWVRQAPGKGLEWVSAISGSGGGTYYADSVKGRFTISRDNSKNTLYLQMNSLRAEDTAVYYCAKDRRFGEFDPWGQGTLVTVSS chain 2: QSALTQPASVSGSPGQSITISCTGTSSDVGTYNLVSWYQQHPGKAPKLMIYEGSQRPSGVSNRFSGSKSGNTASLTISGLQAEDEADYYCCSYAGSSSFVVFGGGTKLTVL , please.
Found: 1.4
